# IC50 listing for each entry below
target: Recombinant human renin (Homo sapiens); construct: isolate the active form (residues 67-406); made in house; host or cells: FreeStyle 293-F cells (transient expression of pcDNA3.1(+)/hREN); assay: In vitro enzymatic activity assay of Renin inhibitors (fluorescence, QXL520/HiLyteFluo488 peptide substrate); format: biochemical; details: recombinant human renin 3 nM, 1 μM substrate, 37° C., pH 7.4; values given as ranges; read-out: IC50 of Exemplified Compounds Against Renin
Sequence (P00797 67-406): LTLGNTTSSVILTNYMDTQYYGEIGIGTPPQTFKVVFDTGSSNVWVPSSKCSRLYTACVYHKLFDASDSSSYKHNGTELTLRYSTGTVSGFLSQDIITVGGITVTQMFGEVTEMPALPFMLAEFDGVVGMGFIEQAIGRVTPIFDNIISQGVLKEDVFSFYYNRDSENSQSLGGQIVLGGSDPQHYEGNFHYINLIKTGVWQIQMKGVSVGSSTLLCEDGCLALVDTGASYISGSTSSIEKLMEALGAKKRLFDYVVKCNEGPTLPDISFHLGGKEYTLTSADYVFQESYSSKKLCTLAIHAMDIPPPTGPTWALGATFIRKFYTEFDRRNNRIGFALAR

COMPOUND: O=C(CCc1ccccc1Oc1ccccc1)N1CCNC[C@H]1Cc1ccc(O)cc1
IC50: < 500 nM
//
COMPOUND: CC(=O)NCCc1ccccc1Oc1ccccc1CCC(=O)N1CCNC[C@H]1Cc1ccc(O)cc1
IC50: < 500 nM
//
COMPOUND: CC(=O)NCc1ccc(C)nc1Oc1ccc(C)cc1CCC(=O)N1CCNC[C@H]1Cc1ccccc1
IC50: 500 to 5000 nM
//
COMPOUND: COc1ccc(Oc2ccccc2CCC(=O)N2CCNC[C@H]2Cc2ccccc2)c(CNC(C)=O)c1
IC50: < 500 nM
//
COMPOUND: CC(=O)NCCc1ccccc1Cc1ccccc1CCC(=O)N1CCNC[C@H]1Cc1ccc(C(=O)NS(C)(=O)=O)cc1
IC50: < 500 nM
//
COMPOUND: O=C(Cc1ccccc1-c1ccc(F)cc1)N1CCNC[C@H]1Cc1ccccc1
IC50: 500 to 5000 nM
//
COMPOUND: CC(=O)NCCc1ccccc1Cc1ccccc1CCC(=O)N1CCNC[C@H]1Cc1ccc(OCC(=O)O)cc1
IC50: < 500 nM
//
COMPOUND: COc1cc(CCC(=O)N2CCNC[C@H]2Cc2ccccc2)ccc1OC(C)=O
IC50: > 50000 nM
//
COMPOUND: CC(=O)NCCc1ccccc1Cc1ccccc1CCC(=O)N1CCNC[C@H]1Cc1ccc(OCC(=O)NS(C)(=O)=O)cc1
IC50: < 500 nM
//
COMPOUND: COC(=O)COc1ccc(C[C@@H]2CNCCN2C(=O)CCc2ccccc2Cc2ccccc2CCNC(C)=O)cc1
IC50: < 500 nM
//
COMPOUND: CC(=O)NCCc1ccccc1Oc1ccccc1CCC(=O)N1CCNC[C@H]1Cc1ccc(OCC(N)=O)cc1
IC50: < 500 nM
//
COMPOUND: O=C(C(Cc1ccccc1)c1ccccc1)N1CCNC[C@H]1Cc1ccccc1 (stereo partly shown)
IC50: 500 to 5000 nM
//
COMPOUND: COc1ccccc1OCC(=O)N1CCNC[C@H]1Cc1ccccc1
IC50: > 50000 nM
//
COMPOUND: O=C(CCC1(c2ccccc2)CCCCC1=O)N1CCNC[C@H]1Cc1ccccc1 (stereo partly shown)
IC50: 5000 to 50000 nM
//
COMPOUND: CC(=O)NCc1ccccc1Oc1ccccc1CCC(=O)N1CCNC[C@H]1Cc1ccccc1
IC50: < 500 nM
//
COMPOUND: CC(=O)NCc1cc(C)ccc1Oc1ccccc1CCC(=O)N1CCNC[C@H]1Cc1ccccc1
IC50: < 500 nM

Data provenance: patent US20100210635A1
